- Test system: HepG2
- Method notes: cell viability relative to DMSO; higher = less toxic
- Condition label: 72 h; 10000 nM
Form field: cell viability (one value per entry).
Provide the reading as a plain figure in %.

>  <Compound>
c1ccc2[nH]c(-c3cscn3)nc2c1

>  <Target desc>
HepG2

>  <Test value>
106

$$$$
>  <Compound>
C[C@H](NC[C@H](O)CP(=O)(O)Cc1ccccc1)c1ccc(Cl)c(Cl)c1

>  <Target desc>
HepG2

>  <Test value>
95

$$$$
>  <Compound>
OCCN1CCN(CC/C=C2/c3ccccc3Sc3ccc(C(F)(F)F)cc32)CC1

>  <Target desc>
HepG2

>  <Test value>
89.9

$$$$
>  <Compound>
COC(=O)C(Cc1ccc(OCCn2c(=O)sc3cc(C(=O)c4ccccc4)ccc32)cc1)C(=O)OC

>  <Target desc>
HepG2

>  <Test value>
102

$$$$
>  <Compound>
Cc1nn(C)c2nc(NNC(=O)Nc3cc(Cl)nc(Cl)c3)cc(C(C)C)c12

>  <Target desc>
HepG2

>  <Test value>
74.2

$$$$

Q: Requested read-out: cell viability. Entry: CC(C)N[C@H]1CCn2c(=O)[nH]c3cccc(c32)[C@@H]1O
Result: 105

Q: Please give the measured cell viability for this compound: C#C[C@]1(O)CC[C@H]2[C@@H]3CCC4=CC(=O)CC[C@]4(C)[C@H]3CC[C@@]21C
Result: 97.6

Q: Query (compound): Cc1ncc(C[n+]2csc(CCOP(=O)(O)OP(=O)(O)O)c2C)c(N)n1 [thiamine-pyrophosphate] ; field requested: cell viability
Result: 134

Q: Quick check: cell viability of CNC(=O)c1c(F)cccc1Nc1nc(Nc2cc3c(cc2OC)CCN3C(=O)CN(C)C)nc2[nH]ccc12 ?
Result: 56.5

Q: Given CCn1c2ccccc2c2cc(CNC)ccc21 , state its recorded cell viability.
Result: 68.3

Q: cell viability for CN(C)c1ccc(/C=C2\CCCN=C2c2cccnc2)cc1 ?
Result: 87.4

Q: Could you share which cell viability value was measured for Cn1cc(C2=C(c3ccc(Cl)cc3Cl)C(=O)NC2=O)c2ccccc21 ?
Result: 87.2

Q: Return reported cell viability; argument: C[N+]1(CCCCC[N+]2(C)CCCC2)CCCC1
Result: 97.6

====

- System: U2OS
- Method notes: cell viability relative to DMSO; higher = less toxic
- Condition label: 72 h; 1000 nM
Here the recorded cell viability is given for each entry.
Your answer should be a plain number; it is taken to be in %.

Here's what some known entries look like.
>  <Molecule>
Nc1nnc(Sc2ncc([N+](=O)[O-])s2)s1

>  <cell viability, %>
93.4

$$$$
>  <Molecule>
O=C(Nc1ccncc1)c1cc([N+](=O)[O-])ccc1Cl

>  <cell viability, %>
106

$$$$
>  <Molecule>
CN1CCCC(n2nc(Cc3ccc(Cl)cc3)c3ccccc3c2=O)CC1 (stereo not given)

>  <cell viability, %>
100

$$$$

Q: So what does the record say about cell viability for CCn1c2ccccc2c2cc(CNC)ccc21 ?
Result: 99.7

Q: Fill blank: measured cell viability of the molecule Cc1[nH]c(/C=C2\C(=O)Nc3cc(-c4ccccc4)ccc32)c(C)c1CCC(=O)O [SU16f] is ____.
Result: 95.5

====

- Tested on: HepG2
- Method notes: drug sensitivity score (DSS) for viability; higher = more toxic; extreme values may be limits of the assay
- Condition label: 72 h
Reported drug sensitivity score by item:

Example compounds with recorded drug sensitivity score:
>  <Compound>
Cc1nn(C)c2nc(NNC(=O)Nc3cc(Cl)nc(Cl)c3)cc(C(C)C)c12

>  <drug sensitivity score>
1.7

$$$$
>  <Compound>
CC(C)N(CCC(C(N)=O)(c1ccccc1)c1ccccn1)C(C)C (centres undefined) [disopyramide]

>  <drug sensitivity score>
0

$$$$
>  <Compound>
NC(=O)c1cc([N+](=O)[O-])cc([N+](=O)[O-])c1 [nitromide]

>  <drug sensitivity score>
0

$$$$

Q: # input compound: CS(=O)(=O)c1ccc(-c2cc(Br)sc2-c2ccc(F)cc2)cc1 ; wanted: its drug sensitivity score
Result: 0.4

====

- Test system: Caco-2
- Method notes: cell viability relative to DMSO; higher = less toxic
- Condition label: 72 h; 10 nM
Item-by-item account of cell viability
Please append the unit to your numeric answer.

// solved cases for cell viability follow
>  <Molecule>
CC(C)c1nc(CN(C)C(=O)N[C@H](C(=O)N[C@@H](Cc2ccccc2)C[C@H](O)[C@H](Cc2ccccc2)NC(=O)OCc2cncs2)C(C)C)cs1 [ritonavir]

>  <Measure name>
cell viability

>  <Test value>
94.3%

$$$$
>  <Molecule>
O=C(O)c1ccc(S(=O)(=O)N(Cl)Cl)cc1

>  <Measure name>
cell viability

>  <Test value>
93.5%

$$$$
>  <Molecule>
Cl/C(=C\n1cncn1)c1ccc(Cl)cc1Cl

>  <Measure name>
cell viability

>  <Test value>
92.8%

$$$$
>  <Molecule>
O=C(Cc1ccccc1)Nc1nc2ccc(Cl)cc2c2nc(-c3ccco3)nn12

>  <Measure name>
cell viability

>  <Test value>
100%

$$$$
>  <Molecule>
c1ccc2c(c1)CN1CCCC1=N2

>  <Measure name>
cell viability

>  <Test value>
113%

$$$$
>  <Molecule>
C=CC(=O)Nc1cccc(Oc2nc(Nc3ccc(N4CCN(C)CC4)cc3OC)ncc2Cl)c1

>  <Measure name>
cell viability

>  <Test value>
95.9%

$$$$
>  <Molecule>
[O-][n+]1cccc(CO)c1 [mepiroxol]

>  <Measure name>
cell viability

>  <Test value>
95.1%

$$$$
>  <Molecule>
Cc1cccc(Nc2ccncc2S(=O)(=O)NC(=O)NC(C)C)c1 [torasemide]

>  <Measure name>
cell viability

>  <Test value>
112%

$$$$

Alright, here's another molecule for you.
Q: Tell me the measured cell viability of O=C(Nc1ccccc1)N1CCC(Cc2cnc3ccccc3c2)CC1 , please.
Result: 99.4%

====

- System: Vero E6
- Method notes: cell viability relative to DMSO; higher = less toxic
- Condition label: 72 h; 10 nM
Below, each entry is listed alongside its reported cell viability.
Write the number in % without appending the unit.

>  <Compound>
CC(C)N(CCC(C(N)=O)(c1ccccc1)c1ccccn1)C(C)C (centres undefined) [disopyramide]

>  <Target desc>
Vero E6

>  <cell viability / %>
101

$$$$

Q: Return cell viability measured with Vero E6 given this compound: CC(O)COC[C@H]1O[C@@H]2O[C@H]3[C@H](O)[C@@H](O)[C@@H](O[C@H]4[C@H](O)[C@@H](O)[C@@H](O[C@H]5[C@H](O)[C@@H](O)[C@@H](O[C@H]6[C@H](O)[C@@H](O)[C@@H](O[C@H]7[C@H](O)[C@@H](O)[C@@H](O[C@H]8[C@H](O)[C@@H](O)[C@@H](O[C@H]1[C@H](O)[C@H]2O)O[C@@H]8COCC(C)O)O[C@@H]7COCC(C)O)O[C@@H]6COCC(C)O)O[C@@H]5COCC(C)O)O[C@@H]4COCC(C)O)O[C@@H]3COCC(C)O (stereo partly drawn) [hydroxypropyl-beta-cyclodextrin]
Result: 96.1

Q: // lookup cell viability | system=Vero E6 | key= Cl/C(=C\n1cncn1)c1ccc(Cl)cc1Cl
Result: 102

Q: Can you look up cell viability on Vero E6 for Cc1cccc(Nc2nc(-c3ccncc3)cs2)c1 ?
Result: 111

====

- Test system: U2OS
- Method notes: cell viability relative to DMSO; higher = less toxic
- Condition label: 72 h; 10000 nM
Measure name: cell viability (%)
Numbers only; they are read as %.

>  <Compound>
C[C@]12CC[C@H]3[C@@H](CCC4=CC(=O)CC[C@@]43C)[C@@H]1CC[C@@H]2C(=O)CO

>  <Target desc>
U2OS

>  <Readout units>
%

>  <cell viability>
95.4

$$$$
>  <Compound>
Cc1ccc(Cl)c(OCC(O)CNC(C)(C)C)c1 (stereo not drawn)

>  <Target desc>
U2OS

>  <Readout units>
%

>  <cell viability>
104

$$$$

Kindly consider the entry below.
Q: Form entry - test system: U2OS; read-out: cell viability; compound: CC[C@H](c1ccc(O)cc1)[C@@H](CC)c1ccc(O)cc1
Result: 100

====

- System: Calu-3
- Method notes: drug sensitivity score (DSS) for viability; higher = more toxic; extreme values may be limits of the assay
- Condition label: 72 h
Measure name: drug sensitivity score
A bare number is all that is needed in reply.

Sample records with drug sensitivity score:
>  <Compound>
Oc1cccc(-c2c3nc(c(-c4cccc(O)c4)c4ccc([nH]4)c(-c4cccc(O)c4)c4nc(c(-c5cccc(O)c5)c5ccc2[nH]5)CC4)C=C3)c1 [temoporfin]

>  <drug sensitivity score>
0

$$$$
>  <Compound>
Cc1cc([C@@H](C)Nc2ccccc2C(=O)O)c2nc(N3CCOCC3)cc(=O)n2c1 [AZD6482]

>  <drug sensitivity score>
1.3

$$$$
>  <Compound>
CC(C)=CCC[C@](C)(O[C@@H]1O[C@H](CO)[C@@H](O)[C@H](O)[C@H]1O)[C@H]1CC[C@]2(C)[C@@H]1[C@H](O)C[C@@H]1[C@@]3(C)CC[C@H](O)C(C)(C)[C@@H]3CC[C@]12C [ginsenoside-C-K]

>  <drug sensitivity score>
0

$$$$
>  <Compound>
OC(c1ccccc1)(c1ccccc1)C12CC[N+](CCOCc3ccccc3)(CC1)CC2 [umeclidinium]

>  <drug sensitivity score>
0

$$$$
>  <Compound>
OB1OCc2cc(F)ccc21 [tavaborole]

>  <drug sensitivity score>
0

$$$$

# evaluate next
Q: Record request: drug sensitivity score value, item CC[N+](C)(CC)CCC[n+]1c(-c2ccccc2)c2cc(N)ccc2c2ccc(N)cc21 [propidium-iodide]
Result: 0
